Source listed as ChEMBL document CHEMBL4665734.

# Tested on: Escherichia coli CFT073
# Assay Remarks: Inhibition of LspA in wild type Escherichia coli CFT073 assessed as inhibition of bacterial growth
Starred links: 1 amine or outer side, 2 acyl side, 3 side chain; linkers in the order of their positions; H or OH if unused. Non-standard residues stand in square brackets, D forms with d. Residues, ends and D or L forms follow the SMILES beside them. *: point of attachment. X10 = CCCCCC[C@@H](OC[C@@H](CC)N[*:1])[C@@H](C)C(=O)[*:2]; X1 = CCCCCC[C@@H](OC[C@@H](C)N[*:1])[C@@H](C)C(=O)[*:2]; X7 = CCCCCC[C@@H](O[C@H](C)CN[*:1])[C@@H](C)C(=O)[*:2]; Gly(cHept) = N[C@H](C(=O)O)C1CCCCCC1; aThr = C[C@H](O)[C@H](N)C(=O)O; NMeL = CN[C@@H](CC(C)C)C(=O)O; Chg = N[C@H](C(=O)O)C1CCCCC1; NMeNva = CCC[C@H](NC)C(=O)O; hSer = N[C@@H](CCO)C(=O)O; Dap = NC[C@H](N)C(=O)O; Propyl(3-NH2) = NCCC*
Please note: MIC exactly at 20 µM is NO. Only values below 20 µM get YES.

- Molecule: "CCCCCCCCCC[C@H]1OC(=O)CNC(=O)[C@H]([C@H](C)O)NC(=O)[C@H](CNC(=N)N)NC(=O)[C@H]([C@@H](C)CC)NC(=O)[C@H](CC(C)C)N(C)C(=O)[C@@H]1C"
  Discrete Label: "NO"
- Molecule: "CCCCCC[C@H]1OC[C@@H](C)NC(=O)[C@H](COc2ccc(CN)cc2)NC(=O)[C@H](CN)NC(=O)[C@H](C2CCCCC2)NC(=O)[C@H](CCC)N(C)C(=O)[C@@H]1C"
  Discrete Label: "YES"
- Molecule: "CCCCCC[C@H]1O[C@H](C)CNC(=O)[C@H]([C@H](C)O)NC(=O)[C@H](CN)NC(=O)[C@H](C2CCCCC2)NC(=O)[C@H](CC(C)C)N(C)C(=O)[C@@H]1C (cyclo([Chg][Dap][aThr][X7][NMeL]))"
  Discrete Label: "NO"
- Molecule: "CCCCCC[C@H]1OC(=O)CNC(=O)[C@H]([C@H](C)O)NC(=O)[C@H](CN)NC(=O)[C@H](CC(C)C)NC(=O)[C@H](CC(C)C)N(C)C(=O)[C@@H]1C"
  Discrete Label: "NO"
- Molecule: "CCC[C@H]1C(=O)N[C@@H](C2CCCCCC2)C(=O)N[C@@H](CN)C(=O)N[C@@H]([C@H](C)O)C(=O)NCC(=O)O[C@H](CC2CC3(CCC3)C2)[C@@H](C)C(=O)N1C"
  Discrete Label: "YES"
- Molecule: "CCCCCC[C@H]1OC[C@@H](C)NC(=O)[C@H](CCOCCCN)NC(=O)[C@H](CN)NC(=O)[C@H](C2CCCCCC2)NC(=O)[C@H](CCC)N(C)C(=O)[C@@H]1C (cyclo([Dap][hSer](Propyl(3-NH2))[X1][NMeNva][Gly(cHept)]))"
  Discrete Label: "YES"
- Molecule: "CCCCCC[C@H]1OC(=O)CNC(=O)[C@H]([C@H](C)O)NC(=O)[C@H](CN)NC(=O)[C@H](C2CCCCC2)NC(=O)[C@H](CC(C)C)N(C)C(=O)[C@@H]1C"
  Discrete Label: "YES"
- Molecule: "CCCCCCCCCC[C@H]1OC(=O)CNC(=O)[C@H]([C@H](C)O)NC(=O)[C@H](CO)NC(=O)[C@H]([C@H](C)CC)NC(=O)[C@H](CC(C)C)N(C)C(=O)[C@@H]1C"
  Discrete Label: "YES"
- Molecule: "CCCCCCN1CCCNC(=O)[C@H]([C@H](C)O)NC(=O)[C@H](CN)NC(=O)[C@H]([C@H](C)CC)NC(=O)[C@H](CC(C)C)N(C)C(=O)[C@@H]1C"
  Discrete Label: "NO"
- Molecule: "CCCCCC[C@H]1OC[C@@H](CC)NC(=O)[C@H]([C@H](C)O)NC(=O)[C@H](CN)NC(=O)[C@H](C2CCCCC2)NC(=O)[C@H](CC(C)C)N(C)C(=O)[C@@H]1C (cyclo([Chg][Dap][aThr][X10][NMeL]))"
  Discrete Label: "YES"
